Molecular target: Thymidine kinase, cytosolic (Homo sapiens, UniProt P04183)
Sequence (P04183 whole entry): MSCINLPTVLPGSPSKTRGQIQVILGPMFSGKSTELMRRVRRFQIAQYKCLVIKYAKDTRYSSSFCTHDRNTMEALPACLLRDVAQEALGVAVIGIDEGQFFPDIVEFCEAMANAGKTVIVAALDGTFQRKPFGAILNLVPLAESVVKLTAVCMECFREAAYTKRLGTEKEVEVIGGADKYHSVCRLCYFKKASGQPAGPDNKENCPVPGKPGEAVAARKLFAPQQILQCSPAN
pIC50: −log10 of the molar value.
System: Thymidine kinase, cytosolic (Homo sapiens, UniProt P04183) | Read-out: pIC50 | Origin: multiple publications

[
  {
    "STRUCTURE_NOTATION": "O=c1nc2oc(-c3ccc(OCCCCCCF)cc3)cc2cn1[C@H]1C[C@H](O)[C@@H](CO)O1",
    "TARGET": "Thymidine kinase, cytosolic (Homo sapiens, UniProt P04183)",
    "pIC50": "< 3.30"
  },
  {
    "STRUCTURE_NOTATION": "COc1ccc(-c2cc3cn([C@H]4C[C@H](O)[C@@H](CO)O4)c(=O)nc3o2)cc1",
    "TARGET": "Thymidine kinase, cytosolic (Homo sapiens, UniProt P04183)",
    "pIC50": "< 3.30"
  },
  {
    "STRUCTURE_NOTATION": "Cc1cn(C/C=C\\CN(Cc2ccccc2)Cc2ccccc2)c(=O)[nH]c1=O",
    "TARGET": "Thymidine kinase, cytosolic (Homo sapiens, UniProt P04183)",
    "pIC50": "< 3.30"
  },
  {
    "STRUCTURE_NOTATION": "CCCCCCCCCCCC(=O)O[C@H]1[C@H](O)[C@@H](CO)O[C@H]1n1cc(C)c(=O)[nH]c1=O",
    "TARGET": "Thymidine kinase, cytosolic (Homo sapiens, UniProt P04183)",
    "pIC50": "≤ 3.00"
  }
]
